Hey, just so you know, these numbers are from patent US5498632A.

tested on: Enterobacter aerogenes (UM); assay: MIC in broth, Gram- strains; assay type: cell-based; settings: Klebsiella aerogenes, 18 h, read-out: Minimal Inhibitory Concentration (MIC)
I'd be grateful if you could share measured MIC for these entries.

Reported MIC for CCCCCCCCCCCCCCCCOC(=O)CC(C[N+](C)(C)C)OC(=O)CC(C)C (stereo not drawn) [ST 1001] : what is it?
> 100 µg/mL

Reported MIC for CCCCCCCCCCCCCOC(=O)CC(C[N+](C)(C)C)OC(=O)CCCCCC (stereo not drawn) [ST 1050] : what is it?
> 100 µg/mL

Reported MIC for CCCCCCCCCCCCCOC(=O)CC(C[N+](C)(C)C)OC(=O)CCCCC (stereo not drawn) [ST 1052] : what is it?
> 100 µg/mL
